Tested on: MDA-MB-435
MEASUREMENT DESCRIPTION: NCI tumour cell line growth inhibition, 48 h
Calls of active or inactive are those of the source. Cut-off read from the data, not from the text of the source: active = GI50 up to about 1.1 µM and inactive = higher.
VALUE KIND: GI50

Below are worked cases with known answers.
# COMPOUND, VALUE KIND, VALUE MEASURED
rows = [
    ("Brc1cccc(C2(CCCC3(c4cccc(Br)n4)OCCO3)OCCO2)n1", "GI50", "> 100 µM (inactive)"),
    ("O=C(CC(=O)N1N=C(N2CCCCC2)CC1c1ccccc1)Nc1ccc(Cl)cc1 (stereo not given)", "GI50", "> 100 µM (inactive)"),
    ("C=C(CC[C@@H](C(=O)O)[C@H]1[C@H](O)C[C@@]2(C)C3=CC[C@@H](C(=C)C)[C@](C)(CCC(=O)O)C3=CC[C@]12C)C(C)C", "GI50", "18.8 µM (inactive)"),
    ("NC1CNC(=O)c2c(Cl)sc(Cl)c21 (stereo not given)", "GI50", "> 100 µM (inactive)"),
    ("NCCCC[C@H](N)C(=O)Nc1ccc(-c2nc3ccccc3s2)cc1Cl", "GI50", "4.9 µM (inactive)"),
]

Look up GI50 for the entries below, preserving their order.
1. CCOC1=NC(C(F)(F)F)(C(F)(F)F)N=C(N2CCOCC2)O1
2. O=C1NN=C2C=C(c3ccc(Cl)cc3)CC(c3cccc(Cl)c3)C12 (stereo not given)
3. Cc1c(-c2nc3ccccc3[nH]2)c(=O)n(-c2ccccc2)n1C
4. Clc1ccc(C2ON=C(c3ccccc3)N2C23CC4CC(CC(C4)C2)C3)cc1 (stereo not given)
5. C[C@]12C[C@@H](OC(=O)[C@]1(C)O)[C@@H]([C@]1(O)CC[C@H]3[C@@H]4C[C@H]5O[C@]56C[C@H]5O[C@H]5C(=O)[C@]6(C)[C@H]4CC[C@@]31C)C2
6. CC1(C)[C@@H]2CC[C@]1(C)[C@H](OC(=O)CSC#N)C2
7. COC(=O)c1c(C)[nH]c2c1cc(O)c1nc(C)c(C)nc12
8. CCOc1ccc2nc(-c3ccc(O)cc3)sc2c1

result:
> 100 µM (inactive)
19.1 µM (inactive)
> 100 µM (inactive)
> 10 µM (inactive)
> 50 µM (inactive)
46.2 µM (inactive)
> 100 µM (inactive)
> 100 µM (inactive)
